# Target entity: Parkinson's disease protein 7 (PARK7/DJ1) (human, UniProt Q99497)
# Sequence (Q99497 whole entry, looked up): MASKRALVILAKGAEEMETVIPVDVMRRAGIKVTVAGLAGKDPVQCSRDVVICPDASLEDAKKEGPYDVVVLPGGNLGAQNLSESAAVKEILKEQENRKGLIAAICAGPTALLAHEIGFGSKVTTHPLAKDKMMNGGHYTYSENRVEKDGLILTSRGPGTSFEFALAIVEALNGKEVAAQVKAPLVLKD
# Assay method text: primary screen, percent inhibition; read as competition with a fluorescent probe by fluorescence polarization; higher = more effect of the substance
# Settings: 100 µM
# Protocol: The screen was conducted using the conditions as described above in 1536-well plates (Corning 3724) with a reaction volume of 8 μL per well. The compound library containing 7887 covalent fragments was purchased at Enamine Ltd. and received as 100 mM DMSO stocks in 384 well LDV Echo plates (Labcyte LP-0200). Stock solutions of 0.26 μM PARK7 and 80 nM JYQ-107 were prepared. […] After 2 h incubation, the FP signal was recorded on a BMG Labtech PHERAstar plate reader (λex/em 480/520 nm). […]
Screen size: about 7,900 compounds; about 400 (5.1%) showed an effect of 50% or more. This excerpt belongs to a sample that is enriched for strong results.
Entries and their Inhibition %
Quantity measured: Inhibition % (%)

>>> df
                                    compound  quantity_measured  result_unit    val
 0     O=C(CCl)Nc1cccc(S(=O)(=O)N=C2CCCN2)c1       Inhibition %            %   18.3
 1             CC1(C)OB(c2cccc(Cl)c2)OC1(C)C       Inhibition %            %  -3.11
 2  O=S(=O)(F)c1ccc(S(=O)(=O)Nc2cccc(F)n2)cc1       Inhibition %            %   54.7
 3             COC(=O)c1c(NC(=O)CCl)sc(C)c1C       Inhibition %            %   10.8
 4          Cc1cc(C(=O)CCl)c(C)n1-c1ncn[nH]1       Inhibition %            %     60
 5    O=S(=O)(F)c1ccc(S(=O)(=O)Nc2ccccn2)cc1       Inhibition %            %   5.71
 6  O=C(Cc1ccc2c(c1)CCO2)Nc1cccc(S(=O)(=O)F)c1       Inhibition %            %   94.3
 7   C=CC(=O)NC1CCCCNC1=O (stereo not drawn)       Inhibition %            %   3.54
 8                      C=CC(=O)NCc1cc(C)on1       Inhibition %            %   8.31
 9    C=CC(=O)NCCC1CCCCO1 (stereo not drawn)       Inhibition %            %   2.29
10                 Cc1sc(NC(=O)CCl)c(C#N)c1C       Inhibition %            %   9.37
11                        O=C(CCCl)Nc1ccccc1       Inhibition %            %   3.48
12                     C=CC(=O)Nc1ccc(Cl)cc1       Inhibition %            %   5.59
13  CC1(CO)CCCC1Nc1ccc(C#N)nc1 (stereo not drawn)       Inhibition %            %   6.61
14            CN(CCC1CCOCC1)c1nc2ccccn2c1C#N       Inhibition %            %   5.08
15     O=S(=O)(F)c1ccc(S(=O)(=O)Nc2nccs2)cc1       Inhibition %            %     64
16           O=C(CCl)NC(=O)Nc1ccc2c(c1)OCCO2       Inhibition %            %   7.05
17         O=C(Nc1cccc(S(=O)(=O)F)c1)C1CCCC1       Inhibition %            %   99.8
18  Cc1ccnc(NS(=O)(=O)c2ccc(S(=O)(=O)F)cc2)c1       Inhibition %            %   16.1
19                    Cc1c(C#N)c(S)nc2c1CCC2       Inhibition %            %   15.1
20                               Sc1ncccc1Cl       Inhibition %            %   2.79
21  CC(C)CN1CCN(c2ccc(C#N)nc2)C(C)C1=O (stereo not drawn)       Inhibition %            %   5.84
22  C=CC(=O)N1CC(C)OC2(CCOC(C)C2)C1 (stereo not drawn)       Inhibition %            %   9.19
23                   Cc1sc(NC(=O)CCl)c(C)c1C       Inhibition %            %   56.3
24                     O=C(CCCl)Nc1ccc(F)cc1       Inhibition %            %   5.87
25         CC1(C)OB(c2cc(Cl)cc(Cl)c2)OC1(C)C       Inhibition %            %     81
26  O=C1CCC(CN2CCc3[nH]c4ccc(F)cc4c3C2)O1 (stereo not drawn)       Inhibition %            %   21.1

Data origin: paper PMC9574860
